Kindly supply the reported Improvement over WT values for the records listed here.
Biological target: inactive BoNT/G (BoNT/Gi) (Clostridium botulinum) (UniProt Q60393)
Sequence (Q60393 whole entry): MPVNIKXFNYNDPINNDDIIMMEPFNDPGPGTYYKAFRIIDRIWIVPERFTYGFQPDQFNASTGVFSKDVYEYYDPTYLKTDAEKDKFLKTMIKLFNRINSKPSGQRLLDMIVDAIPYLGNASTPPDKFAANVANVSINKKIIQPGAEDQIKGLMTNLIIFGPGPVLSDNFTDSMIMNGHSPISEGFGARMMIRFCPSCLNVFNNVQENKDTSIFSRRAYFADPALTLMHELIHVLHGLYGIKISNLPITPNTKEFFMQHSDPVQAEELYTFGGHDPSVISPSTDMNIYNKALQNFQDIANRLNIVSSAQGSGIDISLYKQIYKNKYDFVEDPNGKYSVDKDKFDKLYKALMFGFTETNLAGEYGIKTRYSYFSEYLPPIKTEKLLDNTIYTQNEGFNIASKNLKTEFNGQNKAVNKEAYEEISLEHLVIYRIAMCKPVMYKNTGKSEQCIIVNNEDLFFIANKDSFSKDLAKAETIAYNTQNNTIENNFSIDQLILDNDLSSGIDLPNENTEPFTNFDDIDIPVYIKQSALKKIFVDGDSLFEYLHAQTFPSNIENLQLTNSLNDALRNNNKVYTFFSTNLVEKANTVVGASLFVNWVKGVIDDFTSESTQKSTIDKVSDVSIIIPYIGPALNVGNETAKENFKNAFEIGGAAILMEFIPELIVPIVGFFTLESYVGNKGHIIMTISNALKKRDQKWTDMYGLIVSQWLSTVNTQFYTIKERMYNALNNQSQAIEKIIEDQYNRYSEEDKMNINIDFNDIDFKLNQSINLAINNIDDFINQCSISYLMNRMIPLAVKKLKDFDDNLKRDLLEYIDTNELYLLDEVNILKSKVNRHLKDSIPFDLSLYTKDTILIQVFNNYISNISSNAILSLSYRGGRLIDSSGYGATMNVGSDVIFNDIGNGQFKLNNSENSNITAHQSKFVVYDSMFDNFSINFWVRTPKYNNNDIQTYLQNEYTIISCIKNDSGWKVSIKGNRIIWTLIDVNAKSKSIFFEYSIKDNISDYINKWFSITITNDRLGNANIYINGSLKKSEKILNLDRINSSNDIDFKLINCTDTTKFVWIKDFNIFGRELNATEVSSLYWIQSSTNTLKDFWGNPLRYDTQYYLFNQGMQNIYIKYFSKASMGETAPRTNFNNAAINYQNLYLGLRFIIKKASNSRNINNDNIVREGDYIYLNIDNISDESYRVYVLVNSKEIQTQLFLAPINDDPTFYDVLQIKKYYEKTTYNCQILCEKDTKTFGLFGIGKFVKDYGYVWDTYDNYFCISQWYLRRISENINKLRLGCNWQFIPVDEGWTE
Assay: flow cytometry, scFv on yeast; against hu6G6 Wt
One number for each entry, in fold.

hu6G6 variant A3 scFv (scFv) scFv: QVQLVQSGAEVKKPGASVKLSCKASGFNIKDTYMHWVRQAPGQGLEWIGRIDPANGNTKYDPKFQGRATITAGTSINTAYLELSRLRSDDTAVYYCASGPNYYGTTWFAYWGQGTTVTVSSVDLKSGGSTSGSGKPGSGEGSSGSARKIVLTQSPSTLSASVGDRVTITCRASHGISNYLAWYQQKPGRAPKLLIYKASTLHIGVPSRFSGSGSGTEFALTISSLQPDDFSTYYCQQYISYLPHTFGQGTRLEIK = 4.5
hu6G6 variant A4 scFv (scFv) scFv: QVQLVQSGAEVKKPGASVKLSCKASGFNIKDTYMHWVRQAPGQGLEWIGRIDPENGNTKYDPKFQGRATITAYKSINTAYLELSRLRSDDTAVYYCASGPNYYGTTWFAYWGQGTTVTVSSVDLKSGGSTSDSGKPGSGEGSSGSAREIVLTQSPSTLSASVGDRVTITCRASHGISNYLAWYQQKPGRAPKLLIYKASTLHIGVPSRFSGSGSGTEFALTISSLQPDDFSTYYCQQYNSYLPHTFGQGTRLEIK = 6.8
hu6G6 variant B8 scFv (scFv) scFv: QVQLVQSGAEVNKPGASVKLSCKASGFNIKDTYMHWVRQAPGQGLEWIGRIDPANGNTKYDPKFQGRATITAYTSFNTAYLELSRLRSDDTAVYYCASGPNYYGTTWFAYWGQGSTVTVSSVDLKSGGSTSGSGKPGSGEGSSGSAREIVLTQSPSTLSASVGDRVTITCRASHGISNYLAWYQQKPGRAPKLLIYKASTLHIGVPSRFSGSGSGTEFALTISSLQPDDFSTYYCQQYNSYLPHTFGQGTRLEIK = 6.2
hu6G6 variant B8.1 scFv (scFv) scFv: QVQLVQSGAEVNKPGASVKLSCKASGFNIKDTYMHWVRQAPGQGLEWIGRIDPANGNTKYDPKFQGRATITAYTSFNTAYLELSRLRSDDTAVYYCASGPNYYGTTWFAYWGQGTTVTVSSVDLKSGGSTSGSGKPGSGEGSSGSAREIVLTQSPSTLSASVGDRVTITCRASHGISNYLAWYQQKPGRAPKLLIYKASTLHIGVPSRFSGSGSGTEFALTISSLQPDDFSTYYCQQYNSYLPHTFGQGTRLEIK = 4.3

Q) Entry hu6G6 variant A3.1 scFv (scFv) scFv: QVQLVQSGAEVKKPGASVKLSCKASGFNIKDTYMHWVRQAPGQGLEWIGRIDPANGNTKYDPKFQGRATITAGTSINTAYLELSRLRSDDTAVYYCASGPNYYGTTWFAYWGQGTTVTVSSVDLKSGGSTSGSGKPGSGEGSSGSAREIVLTQSPSTLSASVGDRVTITCRASHGISNYLAWYQQKPGRAPKLLIYKASTLHIGVPSRFSGSGSGTEFALTISSLQPDDFSTYYCQQYNSYLPHTFGQGTRLEIK needs its Improvement over WT filled in; supply it.
A) 3.5
